System: 3D7-MR4 trophozoite parasite-infected RBCs
TEST_DESCRIPTION: Metabolomic profiling (hydrophilic metabolite changes, UHPLC-MS)
Assay type: cell-based, Plasmodium falciparum
RUN_CONDITIONS: metabolite IMP
We label by threshold. Values of Log2(fold change) IMP strictly beneath -0.05 are 1.0. Values of -0.05 and up are 0.0.

Check out these entries, answers already filled in.
OC(c1cc(C(F)(F)F)nc2c(C(F)(F)F)cccc12)C1CCCCN1 (stereo not shown) [Mefloquine, reference compound] :: 1.0
COc1ccc(C2c3ccc4ccccc4c3Oc3ncn(CCCN(C)C)c(=N)c32)cc1 (stereo not shown) [MMV667491] :: 1.0
CCOC(=O)C1=C(C)NC2=C(C(=O)CC(c3ccc(OC)c(OC)c3)C2)C1c1ccccc1Cl (stereo not shown) [GNF-Pf-5660, reference compound] :: 0.0
O=C(Nc1ccsc1C(=O)NC1CCCCC1)c1ccc(F)cc1 [MMV665939] :: 0.0
FC(F)(F)c1ccc(Nc2cc3[nH]c(-c4cccc(C(F)(F)F)c4)nc3cn2)nc1 [MMV675939] :: 0.0

# input Lab log: compare recorded Log2(fold change) IMP with -0.05; is it strictly lower for CN(C)c1ccc2nc3ccc(=[N+](C)C)cc-3sc2c1 [Methylene blue, reference compound] ?
# output 1.0

# input Now try CCCN(CCC)CC(O)COc1ccccc1C(=O)Nc1ccccc1 (stereo not shown) [MMV006455] .
# output 0.0
